system-name: IKKε (Homo sapiens, UniProt Q14164)
Sequence (Q14164 1-716): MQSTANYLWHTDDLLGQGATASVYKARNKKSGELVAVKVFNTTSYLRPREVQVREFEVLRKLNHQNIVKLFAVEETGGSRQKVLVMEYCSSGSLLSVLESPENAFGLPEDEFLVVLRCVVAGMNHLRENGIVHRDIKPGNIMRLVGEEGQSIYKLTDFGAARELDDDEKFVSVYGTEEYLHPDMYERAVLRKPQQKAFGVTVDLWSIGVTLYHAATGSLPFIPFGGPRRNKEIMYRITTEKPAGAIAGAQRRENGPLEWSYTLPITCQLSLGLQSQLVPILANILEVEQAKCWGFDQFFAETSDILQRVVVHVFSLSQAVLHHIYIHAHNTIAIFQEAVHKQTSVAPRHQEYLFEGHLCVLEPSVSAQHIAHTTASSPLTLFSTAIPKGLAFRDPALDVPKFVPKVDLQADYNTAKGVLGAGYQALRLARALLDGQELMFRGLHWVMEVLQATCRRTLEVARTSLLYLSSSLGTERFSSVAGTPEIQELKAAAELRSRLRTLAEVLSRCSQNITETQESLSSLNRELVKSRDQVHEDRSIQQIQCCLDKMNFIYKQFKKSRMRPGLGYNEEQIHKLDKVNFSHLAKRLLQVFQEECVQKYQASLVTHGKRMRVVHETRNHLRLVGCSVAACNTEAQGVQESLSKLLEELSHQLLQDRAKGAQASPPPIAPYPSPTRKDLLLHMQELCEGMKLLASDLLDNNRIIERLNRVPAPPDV
test-method-notes: IKKe Biochemical Assay
measurement-parameters: read-out: IKKε IC50
pIC50: −log10 of the molar value. Counter-ions that a name gives are not always drawn.
Reported pIC50 values for the following compounds.

compound: COc1cc(C(=O)N(C)C)ncc1-c1cc2nccc(-c3ccc(OC4CCN(C)CC4(F)F)c(C#N)c3)c2o1 (stereo not shown)
pIC50: > 7.00

compound: CN(C)C(=O)c1ccc(-c2cc3nccc(-c4ccc(OC5CCOCC5)c(C#N)c4)c3o2)nc1
pIC50: > 7.00

compound: COc1cc(C(=O)O)ccc1-c1cc2nccc(-c3ccc(OC4CCOCC4)c(C#N)c3)c2o1
pIC50: > 7.00

compound: COc1cc(C(=O)N2CC3(CCCN3)C2)ccc1-c1cc2nccc(-c3ccc(OC4CCOCC4)c(C#N)c3)c2o1 [Compound 29, hydrochloride]
pIC50: > 7.00

compound: COc1cc(C(=O)NC2CN3CCC2CC3)cnc1-c1cc2nccc(-c3ccc(N4CC[C@H](F)C4)c(C#N)c3)c2o1 (stereo partly shown) [Compound 439]
pIC50: > 7.00

compound: COc1cc(C(=O)N(C)CCCO)ccc1-c1cc2nccc(-c3ccc(OC4CCOCC4)c(C#N)c3)c2o1 [Compound 258, hydrochloride]
pIC50: > 7.00

Now take the following compound into account.
// sample COc1cc(C(=O)N2CCCC(O)C2)ccc1-c1cc2nccc(-c3ccc(OC4CCOCC4)c(C#N)c3)c2o1 (stereo not shown) , its pIC50 was > 7.00

====

system-name: IKKε (Homo sapiens, UniProt Q14164)
Sequence (Q14164 1-716): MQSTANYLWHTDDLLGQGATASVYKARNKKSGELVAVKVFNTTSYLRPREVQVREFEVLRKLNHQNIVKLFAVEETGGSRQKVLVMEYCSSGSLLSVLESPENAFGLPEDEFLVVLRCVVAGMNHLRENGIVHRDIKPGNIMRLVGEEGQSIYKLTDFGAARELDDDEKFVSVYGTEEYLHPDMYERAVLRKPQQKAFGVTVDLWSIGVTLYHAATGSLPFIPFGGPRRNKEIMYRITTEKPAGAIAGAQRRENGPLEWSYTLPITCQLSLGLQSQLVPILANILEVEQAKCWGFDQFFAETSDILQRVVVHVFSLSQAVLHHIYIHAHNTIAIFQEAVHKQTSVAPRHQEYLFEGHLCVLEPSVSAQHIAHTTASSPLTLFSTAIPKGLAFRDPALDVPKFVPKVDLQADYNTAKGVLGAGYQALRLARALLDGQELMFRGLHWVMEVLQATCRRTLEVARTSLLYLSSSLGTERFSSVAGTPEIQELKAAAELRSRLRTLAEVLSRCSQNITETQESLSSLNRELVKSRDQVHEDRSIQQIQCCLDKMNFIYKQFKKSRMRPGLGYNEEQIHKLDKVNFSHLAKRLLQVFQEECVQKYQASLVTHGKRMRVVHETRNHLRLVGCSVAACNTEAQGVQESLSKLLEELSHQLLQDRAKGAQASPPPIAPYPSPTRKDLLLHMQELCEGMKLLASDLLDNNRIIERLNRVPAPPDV
test-method-notes: IKKe Biochemical Assay
measurement-parameters: read-out: IKKε IC50
Where a name gives a salt, the structure may show the parent alone.
property: IC50

molecule: CN(C)C(=O)c1ccc(-c2cc3nccc(-c4ccc(OC5CC(CO)(CCl)C5)c(C#N)c4)c3o2)cc1 (stereo not shown) [Compound 168]
IC50: 100 to 1000 nM
--
molecule: COc1cc(C(=O)N2CCCC3(CCNC3)C2)ccc1-c1cc2nccc(-c3ccc(OC4CCOCC4)c(C#N)c3)c2o1 (stereo not shown) [Compound 25]
IC50: < 100 nM
--
molecule: CCOC(=O)c1ccc(-c2cc3nccc(-c4ccc(N5CC[C@H](F)C5)c(C#N)c4)c3o2)cc1 [Compound 187]
IC50: 100 to 1000 nM
--
molecule: COc1cc(C(=O)N(C)C)cnc1-c1cc2nccc(-c3ccc(NC4CCN(C)C4)c(C#N)c3)c2o1 (stereo not shown) [Compound 433]
IC50: < 100 nM
--
molecule: COc1cc(C(=O)NCC2CCNCC2)ccc1-c1cc2nccc(-c3ccc(OC4CCOCC4)c(C#N)c3)c2o1 [Compound 92, hydrochloride]
IC50: < 100 nM
--
molecule: COc1cc(C(=O)N2CC3CC(C2)O3)cnc1-c1cc2nccc(-c3ccc(OC4CCOCC4)c(C#N)c3)c2o1 [Compound 435]
IC50: < 100 nM
--
molecule: CN(C)C(=O)c1ccc(-c2cc3nccc(-c4ccc(NC5CCOC6(CC6)C5)c(C#N)c4)c3o2)cc1 (stereo not shown) [Compound 286]
IC50: 100 to 1000 nM
--
molecule: COc1cc(C(=O)N(C)CCO)cnc1-c1cc2ncc(C(C)C)c(-c3ccc(OC4CCOCC4)c(C#N)c3)c2o1 [Compound 333]
IC50: > 5000 nM
--
molecule: COc1cc(C(=O)N(C)C)ncc1-c1cc2nccc(-c3ccc(OC4CCN(C(C)C)C4)c(C#N)c3)c2o1 (stereo not shown) [Compound 428]
IC50: 1000 to 5000 nM
--
molecule: COc1cc(C(=O)N[C@H]2CCN(C)C2)ccc1-c1cc2nccc(-c3ccc(OC4CCOCC4)c(C#N)c3)c2o1 [Compound 493]
IC50: < 100 nM

Measured IC50, COc1cc(C(=O)N(C)C)cnc1-c1cc2ncc(F)c(-c3ccc(OC4CCOCC4)c(C#N)n3)c2o1 [Compound 351, hydrochloride] : 100 to 1000 nM

Per the records, this molecule ( COc1cc(C(=O)N2CC[C@@H](N(C)C)C2)cnc1-c1cc2nccc(-c3ccc(N4CCC(F)C4)c(C#N)c3)c2o1 (stereo partly shown) [Compound 454] ) has IC50 equal to < 100 nM

====

system-name: TBK1 (Homo sapiens, UniProt Q9UHD2)
Sequence (Q9UHD2 whole entry, species assumed): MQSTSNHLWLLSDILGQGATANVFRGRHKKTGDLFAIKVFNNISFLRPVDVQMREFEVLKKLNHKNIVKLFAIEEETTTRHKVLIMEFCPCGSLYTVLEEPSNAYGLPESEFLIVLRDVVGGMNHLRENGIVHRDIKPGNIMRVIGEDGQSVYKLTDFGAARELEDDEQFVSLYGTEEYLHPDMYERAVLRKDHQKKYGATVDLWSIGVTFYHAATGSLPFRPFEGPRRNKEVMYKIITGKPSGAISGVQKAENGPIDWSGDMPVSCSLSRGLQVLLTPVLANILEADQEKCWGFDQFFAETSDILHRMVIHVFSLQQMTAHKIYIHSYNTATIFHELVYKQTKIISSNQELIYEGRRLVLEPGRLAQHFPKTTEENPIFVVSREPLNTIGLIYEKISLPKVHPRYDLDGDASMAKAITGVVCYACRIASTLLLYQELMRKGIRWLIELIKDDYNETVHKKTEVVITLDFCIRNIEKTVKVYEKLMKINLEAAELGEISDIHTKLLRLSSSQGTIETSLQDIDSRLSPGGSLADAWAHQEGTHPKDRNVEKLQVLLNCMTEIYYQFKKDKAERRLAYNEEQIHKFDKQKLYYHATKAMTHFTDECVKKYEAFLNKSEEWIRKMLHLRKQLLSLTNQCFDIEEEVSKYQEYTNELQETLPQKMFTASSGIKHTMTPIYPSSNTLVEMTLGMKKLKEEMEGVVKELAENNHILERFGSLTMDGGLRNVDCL
test-method-notes: TBK Biochemical Assay
measurement-parameters: read-out: TBK1 IC50
pIC50: −log10 of the molar value. Where a name gives a salt, the structure may show the parent alone.
property: pIC50

molecule: COc1cc(C(=O)N(C)C)ncc1-c1cc2nccc(-c3ccc(OC4CCOCC4)c(C#N)n3)c2o1 [Compound 387, hydrochloride]
property: pIC50
reported: > 7.00
--
molecule: COc1cc(C(=O)N(C)C)ccc1-c1cc2nccc(-c3ccc(C4(N5CCOCC5)CC4)c(C#N)c3)c2o1 [Compound 292, hydrochloride]
property: pIC50
reported: 6.00 to 7.00
--
molecule: COc1cc(C(=O)N(C)C)n(C)c1-c1cc2nccc(-c3ccc(OC4CCOCC4)c(C#N)c3)c2o1
property: pIC50
reported: > 7.00

Briefly, pIC50 measured for COc1cc(C(=O)N2CC[C@@H](N(C)C)C2)ncc1-c1cc2nccc(-c3ccc(N4CC[C@H](F)C4)c(C#N)c3)c2o1 : > 7.00

Record CN(CCO)C(=O)c1ccc(-c2cc3ncc(Cl)c(-c4ccc(OC5CCOCC5)c(C#N)c4)c3o2)c(F)c1 . Reported pIC50: 5.30 to 6.00

# pIC50 of COc1cc(C(=O)N(C)C)ccc1-c1cc2nccc(-c3ccc(NC4CCOCC4F)c(C#N)c3)c2o1 (centres unmarked) = > 7.00

GET /value?item= COc1cc(C(=O)NC2C3CNCC32)ccc1-c1cc2nccc(-c3ccc(OC4CCOCC4)c(C#N)c3)c2o1 (centres unmarked) [Compound 84, hydrochloride] &field=pIC50 returns > 7.00
